Values from the RNAGym collection of RNA variant scans (doi:10.7554/elife.80360)

Measured self-cleavage, listed per entry.
B1: Hairpin Ribozyme (parent)
chain: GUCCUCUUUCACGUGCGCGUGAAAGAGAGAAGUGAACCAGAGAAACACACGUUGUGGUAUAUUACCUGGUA

variants of: B1; assay: self-cleavage, relative activity (ratio to wild type); higher = more cleavage; co-transcriptional
// no unit string in output, number only

Use these answered entries as a reference point.
variant_description="G15C C46A" endpoint_result=0.136
variant_description="G34C A39G" endpoint_result=1.03
variant_description="C12G A71G" endpoint_result=0.803
variant_description="U55G U70A" endpoint_result=0.351

get_value(item= G57U G69U , readout=self-cleavage) returns 0.215

get_value(item= C16A A64G , readout=self-cleavage) returns 0.455
